Can you tell me fluorescence intensity (monoclonal antibody binding on IL-18) for the items I'm about to list?
Target: T1, human interleukin-18 (IL-18), recombinant (human, UniProt Q14116 37-193)
T1 construct: Commercial recombinant human IL-18; also called human IL-18; free IL-18
T1 sequence (looked up): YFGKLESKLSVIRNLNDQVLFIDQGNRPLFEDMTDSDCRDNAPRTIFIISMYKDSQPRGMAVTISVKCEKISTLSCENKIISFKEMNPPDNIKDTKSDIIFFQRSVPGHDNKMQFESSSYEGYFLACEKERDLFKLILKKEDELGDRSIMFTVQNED
Assay: Luminex, IL-18 on beads, hybridoma antibody
Give bare numbers, in fluorescence intensity.

Record excerpt, results attached:
Antibody 108F8 (antibody, V domains shown, Mouse hybridoma monoclonal antibody) VH: QIQLVQSGPDSKKPGETVKLSCRASGYTFTNYGMNWVKQAPGKGLKWMGWINTYSGVPTYADDFKGQFAFSLETSAATAFLQINNLKDEDTATYFCAREGYSTTRSMDYWGQGTSVTVSS VL: DIVMSQSPSSLAVSAGEKVTMSCKSSQSLLDSRTRKNYLVWYQQKPGQSPKLLIYWASTRGSGVPDRFTGSGSGTDFTLTISSVQAEDLAVYYCKQSYNLRTFGGGTKLEIK    25100
Antibody 131B4 (antibody, V domains shown, Mouse hybridoma monoclonal antibody) VH: EVQVQQSGAELVKPGASVKLSCTASGFKIKDTYIHWLKQRPEQGLEWIGRIDPANGNTIYGSKFQGKATITADTSSNTAYIQLSSLTSGDTAVYFCAGYVWFAYWGQGTLVTVSA VL: DAVLTQTPLSLPVSLGDQASISCTSSQSLVHSNGNTYLHWYLQKPGQSPKLLIYKVSDRFSGVPDRFSGSGSGTDFTLMITRVEAEDLGVYFCSQSSLVPWTFGGGTKLEVK    24800

Enquiry: I have this binder here, Antibody 132H4 (antibody, V domains shown, Mouse hybridoma monoclonal antibody) VH: EVKLVESGGGLVKPGGSLKLSCAASGFTFSNYAMSWVRQNPAKRLEWVATISSGGANIYYPDSVKGRFIISRDNARNTLYLQMSSLRSEDTAMYYCARGDYFNHFWFAYWGQGTLVTVSA VL: DVLMTQTPLSLPVSLGDQASISCRSSQSIVHSNGNTYLEWYLQKPGQSPKFLIYKVSNRFSGVPDRFSGSGSGTDFTLKINRVEAEDLGIYYCFQGSHVPWTFGGGTKLEIK , and I need its recorded fluorescence intensity (monoclonal antibody binding on IL-18).
Return: 23800
